From: patent US9382228B2

tested on: M-NFS-60 cells; assay: cells; settings: 67 h, read-out: M-NFS-60 cell proliferation
REPORTED_ENDPOINT: IC50

                           smiles_structure  subject_of_test          result
0  CC(C)(C)C(=O)NC(=O)Nc1ccc(Oc2ccnc(-c3cncnc3)c2)cn1   M-NFS-60 cells       > 1000 nM
1  Cc1nc(NC(=O)NC(=O)C2(C(F)(F)F)CCC2)ccc1Oc1ccnc(-c2cnn(C)c2)c1   M-NFS-60 cells         < 10 nM
2  COC(C)(C)C(=O)NC(=O)Nc1ccc(Oc2ccnc(-c3ccc(C#N)nc3)c2)c(C)n1   M-NFS-60 cells  100 to 1000 nM
3  COC(C)(C)C(=O)NC(=O)Nc1ccc(Oc2ccnc(-c3ccnc(C)c3)c2)cn1   M-NFS-60 cells         < 10 nM
4  CCc1nc(NC(=O)NC(=O)C2(OC)CC2)ccc1Oc1ccnc(-c2cnn(C)c2)c1   M-NFS-60 cells  100 to 1000 nM

###

In this section, each of the compounds is paired with its reported IC50.
Biological target: unphosphorylated c-FMS kinase (uFMS, Seq. ID no. 1) (Homo sapiens)
Sequence (P07333 538-972): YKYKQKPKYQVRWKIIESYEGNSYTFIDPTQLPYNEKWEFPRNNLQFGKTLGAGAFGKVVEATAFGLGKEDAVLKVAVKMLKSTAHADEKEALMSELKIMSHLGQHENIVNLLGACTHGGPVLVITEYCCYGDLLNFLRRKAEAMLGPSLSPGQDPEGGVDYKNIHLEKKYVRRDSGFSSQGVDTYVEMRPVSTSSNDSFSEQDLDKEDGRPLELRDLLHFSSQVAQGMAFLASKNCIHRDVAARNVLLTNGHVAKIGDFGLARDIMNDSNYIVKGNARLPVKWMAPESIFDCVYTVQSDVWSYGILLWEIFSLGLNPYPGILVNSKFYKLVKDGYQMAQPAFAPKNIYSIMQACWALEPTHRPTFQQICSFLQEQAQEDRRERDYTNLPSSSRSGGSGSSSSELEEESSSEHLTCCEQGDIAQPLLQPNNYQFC
Assay: biochemical
Settings: uFMS, enzymatic assay, ATP 500 μM
REPORTED_ENDPOINT: IC50

In [3]: df
Out[3]:
                                    compound                           subject_of_test          result
 0  Cn1cc(-c2cc(Oc3ccc(NC(=O)NC(=O)C4(C(F)(F)F)CC4)nc3)ccn2)cn1  unphosphorylated c-FMS kinase (uFMS, Seq. ID no. 1) (Homo sapiens)         < 10 nM
 1  Cc1cc(NC(=O)NC(=O)C(C)(C)C)nc(C)c1Oc1ccnc(-c2cnn(C)c2)c1  unphosphorylated c-FMS kinase (uFMS, Seq. ID no. 1) (Homo sapiens)         < 10 nM
 2  COC1(C(=O)NC(=O)Nc2cc(C)c(Oc3ccnc(-n4cnc(C)c4)c3)cn2)CCCC1  unphosphorylated c-FMS kinase (uFMS, Seq. ID no. 1) (Homo sapiens)         < 10 nM
 3  CCC(=O)NC(=O)Nc1ccc(Oc2ccnc(-c3cn(C)cn3)c2)cn1  unphosphorylated c-FMS kinase (uFMS, Seq. ID no. 1) (Homo sapiens)  100 to 1000 nM
 4  Cc1nc(NC(=O)NC(=O)C2(C)CCC2)ccc1Oc1ccnc(-c2cnn(C)c2)c1  unphosphorylated c-FMS kinase (uFMS, Seq. ID no. 1) (Homo sapiens)         < 10 nM
 5  Cn1cc(-c2cc(Oc3ccc(NC(=O)NC(=O)C4CC4)nc3)ccn2)cn1  unphosphorylated c-FMS kinase (uFMS, Seq. ID no. 1) (Homo sapiens)         < 10 nM
 6  CCC(=O)NC(=O)Nc1ccc(Oc2ccnc(-n3cnc(C)c3)c2)cn1  unphosphorylated c-FMS kinase (uFMS, Seq. ID no. 1) (Homo sapiens)  100 to 1000 nM
 7  Cc1nc(NC(=O)NC(=O)C(C)(C)C)ccc1Oc1ccnc(-c2c[nH]nn2)c1  unphosphorylated c-FMS kinase (uFMS, Seq. ID no. 1) (Homo sapiens)         < 10 nM
 8  Cn1cc(-c2cc(Oc3ccc(NC(=O)NC(=O)[C@H]4C[C@](C)(F)C4)nc3)ccn2)cn1  unphosphorylated c-FMS kinase (uFMS, Seq. ID no. 1) (Homo sapiens)         < 10 nM
 9  Cc1nc(NC(=O)NC(=O)C2CCC(F)(F)CC2)ccc1Oc1ccnc(-c2cnn(C)c2)c1  unphosphorylated c-FMS kinase (uFMS, Seq. ID no. 1) (Homo sapiens)         < 10 nM
10  Cc1nc(NC(=O)NC(=O)C2CC(C)(C)C2)ccc1Oc1ccnc(-c2cnn(C)c2)c1  unphosphorylated c-FMS kinase (uFMS, Seq. ID no. 1) (Homo sapiens)         < 10 nM
11  Cc1cn(-c2cc(Oc3ccc(NC(=O)NC(=O)C4CCOC4)nc3C)ccn2)cn1 (stereo not shown)  unphosphorylated c-FMS kinase (uFMS, Seq. ID no. 1) (Homo sapiens)  100 to 1000 nM
12  Cn1cc(-c2cc(Oc3ccc(NC(=O)NC(=O)C4CC5CCC4CC5)nc3)ccn2)cn1 (stereo not shown)  unphosphorylated c-FMS kinase (uFMS, Seq. ID no. 1) (Homo sapiens)         < 10 nM
13  Cn1cc(-c2cc(Oc3ccc(NC(=O)NC(=O)CC(C)(C)C(F)(F)F)nc3)ccn2)cn1  unphosphorylated c-FMS kinase (uFMS, Seq. ID no. 1) (Homo sapiens)         < 10 nM
14  Cc1ccc(-c2cc(Oc3ccc(NC(=O)NC(=O)C4CCCC4)nc3C)ccn2)cn1  unphosphorylated c-FMS kinase (uFMS, Seq. ID no. 1) (Homo sapiens)         < 10 nM
15  Cc1cc(NC(=O)NC(=O)C(C)C)ncc1Oc1ccnc(-c2cnn(C)c2)c1  unphosphorylated c-FMS kinase (uFMS, Seq. ID no. 1) (Homo sapiens)         < 10 nM
16  CCc1nc(NC(=O)NC(=O)C2CCOCC2)ccc1Oc1ccnc(-c2cnn(C)c2)c1  unphosphorylated c-FMS kinase (uFMS, Seq. ID no. 1) (Homo sapiens)         < 10 nM
17  CCOC(C)(C)C(=O)NC(=O)Nc1ccc(Oc2ccnc(-c3cnc(C)s3)c2)cn1  unphosphorylated c-FMS kinase (uFMS, Seq. ID no. 1) (Homo sapiens)         < 10 nM
18  COC(C)(C)C(=O)NC(=O)Nc1ccc(Oc2ccnc(-c3cnc(C)o3)c2)cn1  unphosphorylated c-FMS kinase (uFMS, Seq. ID no. 1) (Homo sapiens)    10 to 100 nM

###

Item-by-item account of pIC50
biological target: unphosphorylated c-KIT kinase (uKIT, Seq. ID no. 2) (Homo sapiens, UniProt P10721); test: biochemical; conditions: uKIT, enzymatic assay, ATP 2000 μM
Sequence (P10721 with tags, fused parts or gaps): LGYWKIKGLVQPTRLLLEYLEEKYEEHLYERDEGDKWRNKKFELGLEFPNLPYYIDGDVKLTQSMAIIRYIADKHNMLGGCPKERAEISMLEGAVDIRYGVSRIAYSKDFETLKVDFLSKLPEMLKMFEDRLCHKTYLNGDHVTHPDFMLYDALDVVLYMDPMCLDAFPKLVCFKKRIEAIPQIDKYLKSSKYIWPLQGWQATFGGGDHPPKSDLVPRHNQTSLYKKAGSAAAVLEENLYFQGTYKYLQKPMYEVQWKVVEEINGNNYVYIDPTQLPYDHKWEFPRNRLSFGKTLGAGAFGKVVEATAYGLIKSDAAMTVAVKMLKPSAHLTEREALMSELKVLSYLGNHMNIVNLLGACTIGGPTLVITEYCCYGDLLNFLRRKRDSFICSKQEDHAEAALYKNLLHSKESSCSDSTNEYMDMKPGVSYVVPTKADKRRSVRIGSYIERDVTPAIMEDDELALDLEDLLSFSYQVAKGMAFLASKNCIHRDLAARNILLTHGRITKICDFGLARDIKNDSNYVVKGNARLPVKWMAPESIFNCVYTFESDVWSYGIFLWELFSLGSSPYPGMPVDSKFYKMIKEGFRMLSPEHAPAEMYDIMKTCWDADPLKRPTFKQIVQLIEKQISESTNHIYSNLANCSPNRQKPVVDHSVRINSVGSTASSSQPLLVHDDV
pIC50: −log10 of the molar value.
REPORTED_ENDPOINT: pIC50

In [3]: df
Out[3]:
                                    compound        result
 0  CCC(C)(C)C(=O)NC(=O)Nc1ccc(Oc2ccnc(-c3cnn(C)c3)c2)cn1 [Example 63]  6.00 to 7.00
 1  Cc1cc(NC(=O)NC(=O)C(C)(C)C)ncc1Oc1ccnc(-c2cnn(C)c2)c1 [Example 84]  6.00 to 7.00
 2  COC1(C(=O)NC(=O)Nc2ccc(Oc3ccnc(-c4cnn(C)c4)c3)c(C)n2)CCCC1 [Example 150]  7.00 to 8.00
 3  COC1(C(=O)NC(=O)Nc2ccc(Oc3ccnc(-c4cc(C)no4)c3)c(C)n2)CCCC1 [Example 166]  6.00 to 7.00
 4  Cn1cc(-c2cc(Oc3ccc(NC(=O)NC(=O)C(C)(C)C(F)(F)F)nc3)ccn2)cn1 [Example 35]  6.00 to 7.00
 5  COC(C)(C)C(=O)NC(=O)Nc1ccc(Oc2ccnc(-n3cnc(C)c3)c2)cn1 [Example 130]        < 6.00
 6  CCOC(C)(C)C(=O)NC(=O)Nc1ccc(Oc2ccnc(-c3cnn(C)c3)c2)cn1 [Example 123]  6.00 to 7.00
 7  Cn1cc(-c2cc(Oc3ccc(NC(=O)NC(=O)C4(C)CCOCC4)nc3)ccn2)cn1 [Example 175]  6.00 to 7.00
 8  COC(C)(C)C(=O)NC(=O)Nc1ccc(Oc2ccnc(-c3ccc(C#N)nc3)c2)c(C)n1 [Example 110]        < 6.00
 9  Cn1cc(-c2cc(Oc3ccc(NC(=O)NC(=O)CC4CC5CCC4C5)nc3)ccn2)cn1 (centres unmarked) [Example 62]        > 8.00
10  CC(C)(C)C(=O)NC(=O)Nc1ccc(Oc2ccnc(-c3ccnc(C(F)(F)F)c3)c2)cn1 [Example 95]        < 6.00
